Recorded values, source patent US20210040184A1.

// koff lookup, one value per entry
- TESTED SYSTEM: Clade C DU172.17 gp120 protein (HIV-1 Clade C, DU172.17)
- METHOD NOTES: BLI (Octet), IgG on anti-hIgG Fc sensor, gp120 analyte, 1:1 fit

| BINDER | koff |
| --- | --- |
| Germ12_NglycoSA_CysCA (antibody, V domains shown) VH: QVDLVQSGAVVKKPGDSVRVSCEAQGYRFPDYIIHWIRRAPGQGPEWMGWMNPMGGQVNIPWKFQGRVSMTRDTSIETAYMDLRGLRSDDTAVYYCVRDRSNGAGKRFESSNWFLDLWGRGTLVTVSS VL: QSALTQPRSVSGSPGQSVTISCTGTHNLVSWAQHQPGRAPKLLIYDFNKRPSGVPDRFSGSGSGGTASLTISGLQDEDDAEYFCWAYEAFGGGTKLTVL | 0.000337 s⁻¹ |
| Germ17 (antibody, V domains shown) VH: QVDLVQSGAVVKKPGDSVRVSCEAQGYRFPDYIIHWIRRAPGQGPEWMGWMNPMGGQVNIPWKFQGRVSMTRDTSIETAYMDLRGLRSDDTAVYYCVRDRSNGSGKRFESSNWFLDLWGRGTLVTVSS VL: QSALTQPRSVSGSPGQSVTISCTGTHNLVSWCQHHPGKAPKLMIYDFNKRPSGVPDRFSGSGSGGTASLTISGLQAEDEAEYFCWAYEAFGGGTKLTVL | 0.000331 s⁻¹ |
